System under test: Biotinylated murine soluble TWEAK (amino acids 81-225 of SEQ ID NO: 61) (murine) (UniProt O54907)
Assay summary: Biacore SPR, biotinylated murine soluble TWEAK on SA sensor, antibody as analyte, 25 C
Each record here notes measured t/2 diss.
Return type: number; implicit unit min.

Before answering, review these 2 worked examples.
>>> number("Antibody 34 (antibody, V domains shown, Humanized variant of antibody 305; also called humanized 305 variant 305-LC4 / 305-HC2) VH: EVQLLESGGGLVQPGGSLRLSCAASGFDFSTYYMSWVRQAPGKGLEWVSTVYVRQGTTYYASWLNGRFTISRDNSKNTLYLQMNSLRAEDTAVYYCAKGGYNYDDAFVIWGQGTLVTVSS VL: AIRMTQSPSSFSASTGDRVTITCQASQNIYSNLAWYQQKPGKAPKLLIYTASYLASGVPSRFSGSGSGTDYTLTISCLQSEDFATYYCQTAYYNSRPDTVAFGGGTKVEIK")
22
>>> number("Antibody 29 (antibody, V domains shown, Humanized variant of antibody 305; also called humanized 305 variant 305-LC2 / 305-HC8) VH: EVQLLESGGGLVQPGGSLRLSCAASGFDFSTYYMSWVRQAPGKGLEWVSTVYVRQGTTYYASWLNGRFTISRDNSKNTLDLQMNSLRAEDTAVYYCAKGGYNYDDAFVIWGQGTLVTVSS VL: DIQMTQSPSSVSASVGDRVTITCQASQNIYSNLAWYQQKPGKAPKLLIYTASYLASGVPSRFSGSGSGTDYTLTISSLQPEDFATYYCQTAYYNSRPDTVAFGGGTKVEIK")
22

Documented t/2 diss of Antibody 32 (antibody, V domains shown, Humanized variant of antibody 305; also called humanized 305 variant 305-LC6 / 305-HC8) VH: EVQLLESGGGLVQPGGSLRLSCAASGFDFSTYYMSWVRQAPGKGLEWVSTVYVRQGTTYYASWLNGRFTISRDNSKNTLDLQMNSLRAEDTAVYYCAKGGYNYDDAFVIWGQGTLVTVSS VL: DIQMTQSPSTLSASVGDRVTITCQASQNIYSNLAWYQQKPGKAPKLLIYTASYLASGVPSRFSGSGSGTEFTLTISSLQPDDFATYYCQTAYYNSRPDTVAFGGGTKVEIK : 17
